- System under test: angiotensin I converting enzyme (ACE) (Oryctolagus cuniculus)
- Sequence (P12822 34-1310): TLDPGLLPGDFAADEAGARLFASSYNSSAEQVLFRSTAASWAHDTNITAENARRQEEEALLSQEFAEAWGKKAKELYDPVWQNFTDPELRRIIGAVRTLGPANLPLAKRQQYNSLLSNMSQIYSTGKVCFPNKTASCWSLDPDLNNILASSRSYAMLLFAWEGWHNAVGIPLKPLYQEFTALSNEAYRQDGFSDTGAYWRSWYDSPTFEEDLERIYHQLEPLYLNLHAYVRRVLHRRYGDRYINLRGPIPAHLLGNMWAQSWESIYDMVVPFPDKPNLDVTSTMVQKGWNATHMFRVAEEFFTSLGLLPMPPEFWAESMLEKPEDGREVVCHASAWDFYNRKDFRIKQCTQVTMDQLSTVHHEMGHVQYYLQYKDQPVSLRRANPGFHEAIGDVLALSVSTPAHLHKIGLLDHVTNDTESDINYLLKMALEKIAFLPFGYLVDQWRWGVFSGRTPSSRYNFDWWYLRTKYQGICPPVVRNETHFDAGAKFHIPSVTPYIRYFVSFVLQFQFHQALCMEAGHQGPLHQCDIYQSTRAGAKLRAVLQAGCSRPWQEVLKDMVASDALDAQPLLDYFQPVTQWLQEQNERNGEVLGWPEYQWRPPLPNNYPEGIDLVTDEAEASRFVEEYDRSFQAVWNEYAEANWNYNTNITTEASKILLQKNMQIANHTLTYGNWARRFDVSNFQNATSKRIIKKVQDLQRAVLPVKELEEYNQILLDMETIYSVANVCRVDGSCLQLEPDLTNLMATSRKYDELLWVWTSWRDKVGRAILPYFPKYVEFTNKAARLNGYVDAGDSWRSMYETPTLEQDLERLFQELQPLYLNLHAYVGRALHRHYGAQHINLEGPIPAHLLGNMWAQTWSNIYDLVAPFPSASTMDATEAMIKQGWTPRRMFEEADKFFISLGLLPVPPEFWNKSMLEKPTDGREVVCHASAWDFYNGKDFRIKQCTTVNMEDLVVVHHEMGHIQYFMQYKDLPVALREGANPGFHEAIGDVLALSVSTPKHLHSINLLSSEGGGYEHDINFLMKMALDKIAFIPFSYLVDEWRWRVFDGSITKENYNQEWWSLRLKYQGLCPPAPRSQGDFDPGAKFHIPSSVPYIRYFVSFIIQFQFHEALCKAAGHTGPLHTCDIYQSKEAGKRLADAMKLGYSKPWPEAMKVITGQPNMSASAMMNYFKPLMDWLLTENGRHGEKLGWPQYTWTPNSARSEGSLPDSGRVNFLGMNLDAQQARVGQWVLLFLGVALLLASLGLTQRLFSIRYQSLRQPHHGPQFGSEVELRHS
Where a SMILES comes first, the peptide text is derived from it.
Readout name: IC50

1) N=C(N)NCCC[C@H](NC(=O)[C@H](Cc1ccc(O)cc1)NC(=O)[C@@H](N)CCCNC(=N)N)C(=O)N1CCC[C@H]1C(=O)O [RYRP, Arg-Tyr-Arg-Pro] (H-RYRP-OH) :: 52 µM
